Molecular target: human IL-6 (human, UniProt P05231 30-212)
Sequence (P05231 30-212 limits assumed): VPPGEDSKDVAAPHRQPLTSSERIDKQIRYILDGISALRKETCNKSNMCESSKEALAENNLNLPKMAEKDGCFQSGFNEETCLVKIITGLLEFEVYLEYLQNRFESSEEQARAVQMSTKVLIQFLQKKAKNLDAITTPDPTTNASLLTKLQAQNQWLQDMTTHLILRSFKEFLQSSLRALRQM
Assay: SPR (Biacore), supernatant antibody on Protein A chip, IL-6 flowed, 37 C
metric.name: koff (s⁻¹)
Unit s⁻¹ implied. Number only.

Solved entries:
>>> recorded_value("anti-IL-6 antibody, heavy chain S35P, G66D / light chain M32L, M50D, N52S, M88Q (antibody, human IgG1, V domains shown, Human IgG1) VH: EVQLVESGGGLVQPGGSLRLSCAASGFTFSPFAMPWVRQAPGKGLEWVAKISPGGSWTYYSDTVTDRFTFSLDTSKSTAYLQMNSLRAEDTAVYYCARQLWGYYALDIWGQGTLVTVSS VL: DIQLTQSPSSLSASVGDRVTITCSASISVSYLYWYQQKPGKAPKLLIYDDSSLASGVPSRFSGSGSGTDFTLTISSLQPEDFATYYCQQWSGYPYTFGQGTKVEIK")
0.00548
>>> recorded_value("anti-IL-6 antibody, heavy chain S35Q, G66D / light chain M32L, M50D, N52S, M88Q (antibody, human IgG1, V domains shown, Human IgG1) VH: EVQLVESGGGLVQPGGSLRLSCAASGFTFSPFAMQWVRQAPGKGLEWVAKISPGGSWTYYSDTVTDRFTFSLDTSKSTAYLQMNSLRAEDTAVYYCARQLWGYYALDIWGQGTLVTVSS VL: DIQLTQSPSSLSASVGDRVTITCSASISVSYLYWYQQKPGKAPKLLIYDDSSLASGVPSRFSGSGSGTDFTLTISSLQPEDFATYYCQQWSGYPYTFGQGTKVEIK")
0.000626

Here is the next item to consider.
Lab book: koff of anti-IL-6 antibody, heavy chain G66D / light chain M32L, M50D, N52S, M88Q (antibody, human IgG1, V domains shown, Human IgG1) VH: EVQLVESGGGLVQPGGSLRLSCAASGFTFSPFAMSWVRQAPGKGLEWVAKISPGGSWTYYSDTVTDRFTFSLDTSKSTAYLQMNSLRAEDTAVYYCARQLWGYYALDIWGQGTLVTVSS VL: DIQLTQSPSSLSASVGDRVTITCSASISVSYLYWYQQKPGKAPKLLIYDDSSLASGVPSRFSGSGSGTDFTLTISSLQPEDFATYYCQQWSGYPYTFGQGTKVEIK noted as 0.000483
